Data origin, for the record: ChEMBL document CHEMBL1155199

Test system: Rattus norvegicus
experimental-protocol: Effect on lipid peroxidation in Albino rat gastric mucosa assessed as malondialdehyde level per mg of protein at 60 mg/kg, po after 17 hrs relative to ibuprofen
Assay type: ADME, organism-based
Parameters: dose 60 mg/kg, route oral
assay-setup: in vivo
If the reported Activity equals or exceeds 0.4 nmol, assign label 1. If not, assign label 0.

Form field: Activity at least 0.4 nmol? Entry: `COc1ccc(-c2cc(=O)c3cc(CN4CCOCC4)ccc3o2)cc1`
label 1

Form field: Activity at least 0.4 nmol? Entry: `COc1ccc(-c2cc(=O)c3cc(CN4CCNCC4)ccc3o2)cc1`
label 1

Form field: Activity at least 0.4 nmol? Entry: `COc1ccc(-c2cc(=O)c3cc(CN4CCNCC4)ccc3o2)cc1OC`
label 1

Form field: Activity at least 0.4 nmol? Entry: `COc1ccc(-c2cc(=O)c3cc(CN4CCOCC4)ccc3o2)cc1OC`
label 0

Form field: Activity at least 0.4 nmol? Entry: `O=c1cc(-c2ccccc2Cl)oc2ccc(CN3CCOCC3)cc12`
label 0
